Tested on: MDA-MB-231
Assay: NCI tumour cell line growth inhibition, 48 h
Calls of active or inactive are those of the source. Rule as the data show it: active = GI50 up to about 1.1 µM and inactive = higher.
Assign GI50 to each entry below.

Param item = c1cc(-c2sc(-c3ccncc3)c(-c3ccncc3)c2-c2ccncc2)ccn1 ; retrieve measured GI50.
15.1 µM (inactive)

Could you tell me which GI50 is on file for COc1ccc(N2C(=O)[C@H]3CC(C)c4c([nH]c5ccccc45)[C@H]3C2=O)cc1 (stereo not given in full) ?
6.35 µM (inactive)

Please report the recorded GI50 for Nc1nonc1-c1noc(-c2nonc2N)[n+]1[O-] .
> 100 µM (inactive)

For the compound O=C(O)CN1CCN(CC(=O)N2CCN(C(=O)OCc3ccccc3)CC2)CCN(CC(=O)O)CCN(CC(=O)N2CCN(C(=O)OCc3ccccc3)CC2)CC1 , what GI50 is on record?
> 100 µM (inactive)

# GI50 lookup, item Cc1cc(=O)oc2c(OS(C)(=O)=O)c(OS(C)(=O)=O)ccc12
> 100 µM (inactive)

Please report the recorded GI50 for Cc1ccc([S+]([O-])CC(CF)OCn2cc(C)c(=O)[nH]c2=O)cc1 (stereo not given) .
> 100 µM (inactive)

Tell me the measured GI50 of CC1(C)OC(CP(c2ccccc2)c2ccccc2)C(CP(c2ccccc2)c2ccccc2)O1 (stereo not given) , please.
1.22 µM (inactive)

Can you look up the measured GI50 of COc1cc(/C=C/C(=O)c2ccc(O)c(OC)c2)ccc1O for me?
29.1 µM (inactive)

Name the reported GI50 value associated with the compound NC(Cc1ccc(OCc2ccccc2)cn1)C(=O)OCc1ccccc1 (stereo not given)
> 100 µM (inactive)

Would you mind telling me what GI50 value was observed for Cc1cn(C2CCC(/C=N\O)O2)c(=O)[nH]c1=O (stereo not given) ?
> 100 µM (inactive)

Requested read-out: GI50. Entry: CO[C@@H]1C[C@H]2[C@@H]3CC[C@H]([C@@H](C)CO)[C@@]3(C)CC[C@@H]2[C@@]2(C)CC[C@H]3C[C@]312
28.3 µM (inactive)

Consider the compound Nc1nc2cc(CNc3ccc(C(=O)NC(CCC(=O)O)C(=O)O)cc3)ccc2nc1-c1ccccc1 (stereo not given) and give its measured GI50.
> 10 µM (inactive)

Consider the compound shown here: Cc1ccc2nc3[nH]nc(N)c3nc2c1 What is its recorded GI50?
> 100 µM (inactive)

Dear colleague, I am looking for the recorded GI50 of the following compound: O=C1NC(=S)NC(=O)C1C(c1ccc([N+](=O)[O-])cc1)C1C(=O)NC(=S)NC1=O.c1ccncc1
> 100 µM (inactive)

Recorded GI50 of CC(=O)OCCCCn1nncc1Cn1ccc(=O)n(Cc2cnnn2CCCCOC(C)=O)c1=O , please.
> 100 µM (inactive)

What value of GI50 has been recorded for this entry: Cc1ccc(C(=O)Nc2ccc(S(=O)(=O)O)c3cc(S(=O)(=O)O)cc(S(=O)(=O)O)c23)cc1NC(=O)c1cccc(N)c1
> 100 µM (inactive)

Tell me the measured GI50 of C=C1c2nc3ccccc3n2C=C(c2ccccc2)N1c1ccc(C)cc1 , please.
> 100 µM (inactive)

Reported GI50, compound CN(C)CCNC(=O)c1cnn(C)c1[N+](=O)[O-] : ____
> 100 µM (inactive)

Param item = C=C1CCC2CC1C(C(=O)c1c[nH]c3ccccc13)=NC2(C)C (stereo not given) ; retrieve measured GI50.
> 100 µM (inactive)

// query GI50 value for entry CCOC(=O)CSc1nnc2cc(CN3CCCC3)c(-c3ccc(Cl)cc3)nn12
> 100 µM (inactive)

The origin of these recorded values is ChEMBL document CHEMBL1201862.
